Target: T1, DegS I179A/H198P (E. coli, UniProt P0AEE3 27-355, I179A | H198P)
T1 sequence (looked up): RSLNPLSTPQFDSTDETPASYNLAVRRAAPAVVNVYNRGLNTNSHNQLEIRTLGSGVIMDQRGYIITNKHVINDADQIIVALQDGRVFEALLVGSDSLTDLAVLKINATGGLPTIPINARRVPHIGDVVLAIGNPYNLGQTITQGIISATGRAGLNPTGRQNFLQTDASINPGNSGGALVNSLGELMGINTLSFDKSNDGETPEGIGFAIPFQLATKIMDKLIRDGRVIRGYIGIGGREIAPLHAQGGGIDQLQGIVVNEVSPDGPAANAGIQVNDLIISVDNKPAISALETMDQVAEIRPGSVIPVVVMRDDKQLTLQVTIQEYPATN
Assay: fluorescence polarisation
Where no end group is shown, it is not given here. fluorescein = fluorescein, a fluorescent label on the peptide N-terminus

# binder, Kd, nM
measured = [
    ("fluorescein-DNRDGNVYYF [fluorescent OMP peptide fluorescein-DNRDGNVYYF]", 1600),
]
